- testName: qHTS for Inhibitors of human tyrosyl-DNA phosphodiesterase 1 (TDP1): qHTS in cells in presence of CPT; note: nearly all actives have a fitted effect of over 55% in size
- appliedConditions: chicken DT40 Tdp1-/-;hTDP1 cells + 20 nM CPT, ATP luminescence, 48 h; series mostly up to 46.2 µM
In all, about 420,000 compounds went through this assay and about 50,000 (12%) were called active. About 26% were inconclusive and are not listed. Calls come from the whole dose curve; as a rule, active = well fitted inhibition curve with a large enough effect; inconclusive = small, poorly fitted or top-dose-only effect; inactive = flat fitted curve, though single readings scatter. The entries come from a sample that favours actives as a whole.
# output must be one of active, inactive

In: Call for entry CCOC(=O)N1CCC(NC(=O)C(NS(=O)(=O)c2ccc3c(c2)CCN3C(=O)CC)C(C)C)CC1 (stereo unspecified) :
Out: inactive

In: Call for entry CN(C)/C(=N\OC(=O)c1ccccc1)c1nonc1N :
Out: inactive

In: Call for entry C[C@@H]1CN([C@H](C)CO)C(=O)CCCn2cc(nn2)CO[C@H]1CN(C)S(C)(=O)=O :
Out: inactive

In: Call for entry CCc1cc2c(NC3CCCC3)ncnc2s1 :
Out: active

In: Call for entry COCCCNc1nc2c(-c3cccc(C(F)(F)F)c3)nnn2c2ccccc12 :
Out: inactive

In: Call for entry CCc1cc2c(NC(Cc3ccccc3)C(=O)O)ncnc2s1 (stereo unspecified) :
Out: inactive

* * *

- testName: qHTS for Inhibitors of human tyrosyl-DNA phosphodiesterase 1 (TDP1): qHTS in cells in presence of CPT; note: nearly all actives have a fitted effect of over 55% in size; note: potency is the fitted concentration of half-maximal effect
- appliedConditions: chicken DT40 Tdp1-/-;hTDP1 cells + 20 nM CPT, ATP luminescence, 48 h; series mostly up to 46.2 µM
Screen size: about 420,000 compounds; about 50,000 (12%) were called active. Not shown: some 26% with an inconclusive outcome. This is one part of a sample in which actives are shown more often than they occur.
metricName: Potency

Worked cases, Potency given:
* CCOC(=O)c1ccc(NC(=O)c2csc3c2CCCCC3)cc1 | 25.9 µM (active)
* COC(=O)c1cccc(NC(=O)CSc2nc(C)cc(=O)[nH]2)c1 | inactive
* COc1ccc(CNC(=O)CN(C(=O)c2csnn2)c2cnc3ccccc3c2)cc1 | inactive
* CCC1(CC)NC(=O)N(CC(=O)OCC(=O)Nc2ccc(C(F)(F)F)cc2)C1=O | inactive
* CC(=O)c1c(C)[nH]c(C(=O)CN2C(=O)NC(C)(C)C2=O)c1C | inactive
* CCCC(=O)OCC(=O)Nc1cc(Cl)ccc1[N+](=O)[O-] | inactive
* CCOC(=O)c1sc(=S)n2c1[nH]c(=O)c1ccc(C(=O)OC)cc12 | 10.3 µM (active)
* O=C(O)C1CCCN1C1=NS(=O)(=O)c2ccccc21 (stereo unspecified) | inactive
* CCOC(=O)c1c(NC(=O)c2cc(-c3ccc(Cl)cc3)on2)sc2c1CCCC2 | inactive
* CCOC(=O)c1ccc(NC(=O)c2c(NCc3ccccc3)[nH]c(=O)[nH]c2=O)cc1 | inactive

In: Which Potency value belongs to Cc1nc2ccccn2c(=O)c1NC(=O)c1cccs1 ?
Out: inactive

* * *

- testName: qHTS for Inhibitors of human tyrosyl-DNA phosphodiesterase 1 (TDP1): qHTS in cells in presence of CPT; note: nearly all actives have a fitted effect of over 55% in size
- appliedConditions: chicken DT40 Tdp1-/-;hTDP1 cells + 20 nM CPT, ATP luminescence, 48 h; series mostly up to 46.2 µM
In all, about 420,000 compounds went through this assay and about 50,000 (12%) were called active. Inconclusive results (about 26%) are left out. Calls follow the shape of the dose curve; as a rule, active = well fitted inhibition curve with a large enough effect; inconclusive = small, poorly fitted or top-dose-only effect; inactive = flat fitted curve, though single readings scatter. For the sample, actives were picked, then their nearest neighbours and some compounds at random.
# output must be one of label 1 = active, label 0 = inactive

In: Call for entry Cc1cc(=O)oc2cc(OC(C)C(=O)NCCc3ccc(S(N)(=O)=O)cc3)ccc12 (stereo not given) :
Out: label 0

In: Call for entry CCOc1ccc(-c2cc3nc(C4CCN(C(=O)OC(C)(C)C)CC4)c(C(=O)Nc4cccc(CC)c4)cn3n2)cc1 :
Out: label 1

In: Call for entry CCCCNc1ccc(-c2nc(-c3ccncc3)no2)cc1[N+](=O)[O-] :
Out: label 0

In: Call for entry Cc1cccc(C)c1NC(=O)CNC(=O)c1ccc(N2CCOCC2)c([N+](=O)[O-])c1 :
Out: label 0

In: Call for entry CN(CC(=O)NCc1ccncc1)S(=O)(=O)c1ccc(Br)cc1 :
Out: label 0

In: Call for entry CN(Cc1ccccc1)C(=O)c1cc2c(=O)n(C)c3ccccc3c2s1 :
Out: label 0

In: Call for entry Cn1c(C(=O)NCCc2ccsc2)cc2c(=O)n(C)c3ccccc3c21 :
Out: label 1

In: Call for entry Cc1ccc2c(c1)c1c(c(=O)n(-c3ccccc3)c(=O)n1CC(=O)c1ccc(Cl)cc1)n2C :
Out: label 0

In: Call for entry CC(C)N(c1ccccc1)c1ncnc(NCCC(=O)O)c1[N+](=O)[O-] :
Out: label 0

In: Call for entry Cc1cc(F)ccc1S(=O)(=O)Nc1ccc(C(=O)N(C)Cc2ccco2)cc1 :
Out: label 0

In: Call for entry CCc1cccc(NC(=O)COC(=O)C2CCN(c3ccc(C(F)(F)F)cn3)CC2)c1 :
Out: label 0

In: Call for entry COCCN1C(=O)c2oc3c(C)cc(C)cc3c(=O)c2C1c1cccc(O)c1 (stereo not given) :
Out: label 0

In: Call for entry CC1CCN(c2ccc(C(=O)Nc3nnc(C4CC4)s3)cc2[N+](=O)[O-])CC1 :
Out: label 0

In: Call for entry CCOc1ccc(CCNC(=O)c2c(C)oc3ncn(C)c(=O)c23)cc1 :
Out: label 0

In: Call for entry Cc1nc(C)c(-c2nnc(-c3cccc(S(=O)(=O)N(C)C)c3)o2)cc1C(=O)NN :
Out: label 0

In: Call for entry Cn1c(C(=O)N2CCC(C(N)=O)CC2)cc2c(=O)n(C)c3ccccc3c21 :
Out: label 0

In: Call for entry CCOC(=O)c1cc(-c2nnc(-c3cc(OC)c(OC)c(OC)c3)o2)c(C)nc1C :
Out: label 1

In: Call for entry COc1cc(-c2nnc(NC(=O)C3=COCCO3)o2)cc(OC)c1OC :
Out: label 0

In: Call for entry Cc1oc(C(N)=O)cc1COc1ccc(C(N)=O)cc1 :
Out: label 0

In: Call for entry CC(=O)c1sc(N2C(=O)c3oc4ccccc4c(=O)c3C2c2ccc(C)cc2)nc1C (stereo not given) :
Out: label 0

* * *

- testName: qHTS for Inhibitors of human tyrosyl-DNA phosphodiesterase 1 (TDP1): qHTS in cells in presence of CPT; note: nearly all actives have a fitted effect of over 55% in size
- appliedConditions: chicken DT40 Tdp1-/-;hTDP1 cells + 20 nM CPT, ATP luminescence, 48 h; series mostly up to 46.2 µM
Out of some 420,000 compounds screened, about 50,000 (12%) were called active. Roughly 26% stayed inconclusive and do not appear here. The call rests on the fitted dose curve; in most records, active means well fitted inhibition curve with a large enough effect; inconclusive means small, poorly fitted or top-dose-only effect; inactive means flat fitted curve, though single readings scatter. The sample holds actives, similar compounds and a random draw of the others, so the mix is not that of the screen.
# output must be one of active, inactive

In: Call for entry Cc1cc(NC(=O)CSc2ncc(C(F)(F)F)cc2Cl)no1 :
Out: inactive

In: Call for entry O=C(COc1ccccc1F)OCc1cc(=O)n2nc(C3CCCCC3)sc2n1 :
Out: inactive

In: Call for entry ClC1(Cl)CC1CSc1ncn[nH]1 (centres undefined) :
Out: inactive

In: Call for entry Fc1ccccc1Cc1ccc(Cl)nn1 :
Out: inactive

In: Call for entry CCCCCCCN=C(C)c1ccccc1O :
Out: inactive

In: Call for entry O=C(c1cc(C(F)(F)F)cc(C(F)(F)F)c1)N1CCC[C@@]2(CCN(c3ccccn3)C2)C1 :
Out: active

In: Call for entry Cc1cnc(C(=O)OCc2c(C)cc(C(C)(C)C)cc2C)cn1 :
Out: inactive

In: Call for entry COc1cccc(/C=N/Nc2ccc(Cl)nn2)c1 :
Out: inactive

In: Call for entry O=C(NCCc1ccccc1Cl)C1CCC(=O)N(CCCc2ccccc2)C1 (centres undefined) :
Out: inactive

In: Call for entry Cc1nc2ccccc2c(=O)n1NC(=O)c1ccc(Cl)c([N+](=O)[O-])c1 :
Out: inactive

In: Call for entry COc1ccc(C(C)NC(=O)C2CCCC2)cc1 (centres undefined) :
Out: inactive

In: Call for entry Cn1c(=O)c2c(SCC(=O)NCC3CCCO3)nc(CC(C)(C)C)nc2n(C)c1=O (centres undefined) :
Out: inactive

In: Call for entry O=C(O)c1ccc(-n2nc(-c3ccccc3)c3ccccc3c2=O)cc1 :
Out: inactive

In: Call for entry CC(C)NC(=O)N1CC[C@@]2(CCCN(C(=O)c3cccc(F)c3)C2)C1 :
Out: inactive

In: Call for entry CCCC(C(=O)NC1CCCC1)N(C(=O)Cn1nnc(-c2ccc(C)o2)n1)c1cccc(O)c1 (centres undefined) :
Out: inactive

In: Call for entry O=C(COC(=O)c1cccs1)Nc1ccccc1Cl :
Out: inactive

In: Call for entry CCN1CCN(C(=O)C2CCCN(S(=O)(=O)c3ccc(OC)c(OC)c3)C2)CC1 (centres undefined) :
Out: inactive

In: Call for entry Clc1ccc(N/N=C/c2cccs2)nn1 :
Out: inactive

In: Call for entry O=C1CCCc2c1nc(-c1cccc(Cl)c1)n2O :
Out: inactive

In: Call for entry COc1ccc(CNC(=O)COC(=O)C(CCSC)N2C(=O)c3ccccc3C2=O)cc1 (centres undefined) :
Out: inactive

In: Call for entry CCOc1ccccc1NC(=O)CCn1cnnn1 :
Out: inactive

In: Call for entry CCOC(=O)C1CCN(C(=O)C2CCCN(S(=O)(=O)c3ccc(OC)c(Cl)c3)C2)CC1 (centres undefined) :
Out: active

In: Call for entry Oc1cccc(/C=N/Nc2ccc(Cl)nn2)c1O :
Out: active

In: Call for entry C/C(=N/OC(=O)c1ccc(Br)cc1)c1ccc(C)cc1 :
Out: inactive
